Organism: Rattus norvegicus
Experiment: Selectivity index, ratio of IC50 for rat serum BuChE to IC50 for rat cortex AChE
For each entry below, report its Ratio IC50 value.
When you answer, write just the number.

Looking up COc1cc2oc(-c3ccc(OCCCCN4CCN(Cc5ccccc5)CC4)cc3)cc(=O)c2c(OC)c1OC , I found its Ratio IC50 recorded as 51.1

Looking up CCN(CCCCCCOc1cccc(-c2cc(=O)c3c(OC)c(OC)c(OC)cc3o2)c1)Cc1ccccc1OC , I found its Ratio IC50 recorded as 189

Looking up CCN(CCCCOc1ccc(-c2cc(=O)c3c(OC)c(OC)c(OC)cc3o2)cc1)Cc1ccccc1 , I found its Ratio IC50 recorded as 51

Looking up CCN(CCCCCCOc1ccc(-c2cc(=O)c3c(OC)c(OC)c(OC)cc3o2)cc1)Cc1ccccc1OC , I found its Ratio IC50 recorded as 291

Looking up CCN(CCCCOc1cccc(-c2cc(=O)c3c(OC)c(OC)c(OC)cc3o2)c1)Cc1ccccc1OC , I found its Ratio IC50 recorded as 97.9

###

Target: Acetylcholinesterase (Electrophorus electricus, UniProt O42275)
Sequence (O42275 whole entry): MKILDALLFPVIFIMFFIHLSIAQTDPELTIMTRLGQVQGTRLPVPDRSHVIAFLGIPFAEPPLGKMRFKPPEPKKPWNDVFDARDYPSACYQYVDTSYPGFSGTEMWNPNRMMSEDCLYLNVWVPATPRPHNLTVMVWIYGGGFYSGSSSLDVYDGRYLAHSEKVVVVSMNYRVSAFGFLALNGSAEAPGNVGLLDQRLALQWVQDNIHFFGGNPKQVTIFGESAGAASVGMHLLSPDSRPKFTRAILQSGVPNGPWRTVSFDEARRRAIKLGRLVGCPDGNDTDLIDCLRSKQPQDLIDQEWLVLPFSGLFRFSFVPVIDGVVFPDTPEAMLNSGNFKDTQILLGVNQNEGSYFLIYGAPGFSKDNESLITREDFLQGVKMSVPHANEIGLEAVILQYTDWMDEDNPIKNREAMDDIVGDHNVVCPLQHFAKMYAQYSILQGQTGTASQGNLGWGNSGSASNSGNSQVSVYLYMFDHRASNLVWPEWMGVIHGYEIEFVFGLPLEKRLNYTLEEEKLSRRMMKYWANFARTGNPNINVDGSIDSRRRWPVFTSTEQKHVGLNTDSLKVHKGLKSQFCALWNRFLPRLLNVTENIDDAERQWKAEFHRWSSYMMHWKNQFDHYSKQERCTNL
pIC50: −log10 of the molar value.
Lab note: compare pIC50 against 5. Equal or greater, write 1 (yes). Smaller, write 0 (no).

Exam item: decide whether the reported pIC50 for COc1cc2oc(-c3ccc(OCCCCN(C)Cc4ccccc4)cc3)cc(=O)c2c(OC)c1OC is at least 5.
1 (yes)

Exam item: decide whether the reported pIC50 for COc1cc2oc(-c3ccc(OCCCCCCN(C)Cc4ccccc4)cc3)cc(=O)c2c(OC)c1OC is at least 5.
1 (yes)

Exam item: decide whether the reported pIC50 for CCN(CCCCCCOc1ccc(-c2cc(=O)c3c(OC)c(OC)c(OC)cc3o2)cc1)Cc1ccccc1OC is at least 5.
1 (yes)

Exam item: decide whether the reported pIC50 for CCN(CCCCOc1cccc(-c2cc(=O)c3c(OC)c(OC)c(OC)cc3o2)c1)Cc1ccccc1OC is at least 5.
1 (yes)

Exam item: decide whether the reported pIC50 for COc1cc2oc(-c3cccc(OCCCN(C)Cc4ccccc4)c3)cc(=O)c2c(OC)c1OC is at least 5.
0 (no)

Exam item: decide whether the reported pIC50 for COc1cc2oc(-c3cccc(OCCN4CCN(Cc5ccccc5)CC4)c3)cc(=O)c2c(OC)c1OC is at least 5.
1 (yes)

Exam item: decide whether the reported pIC50 for CCN(CCCCOc1ccc(-c2cc(=O)c3c(OC)c(OC)c(OC)cc3o2)cc1)Cc1ccccc1OC is at least 5.
1 (yes)

Exam item: decide whether the reported pIC50 for CCN(CCCCOc1ccc(-c2cc(=O)c3c(O)c(OC)c(OC)cc3o2)cc1)Cc1ccccc1OC is at least 5.
1 (yes)

Exam item: decide whether the reported pIC50 for CCN(CCCCCCOc1cccc(-c2cc(=O)c3c(O)c(OC)c(OC)cc3o2)c1)Cc1ccccc1OC is at least 5.
1 (yes)

Exam item: decide whether the reported pIC50 for COc1ccccc1CN(C)CCCCOc1ccc(-c2cc(=O)c3c(O)c(OC)c(OC)cc3o2)cc1 is at least 5.
0 (no)

Exam item: decide whether the reported pIC50 for COc1ccccc1CN(C)CCCCCCOc1cccc(-c2cc(=O)c3c(OC)c(OC)c(OC)cc3o2)c1 is at least 5.
1 (yes)

Exam item: decide whether the reported pIC50 for COc1cc2oc(-c3cccc(OCCCCN(C)Cc4ccccc4)c3)cc(=O)c2c(OC)c1OC is at least 5.
0 (no)

Exam item: decide whether the reported pIC50 for CCN(CCOc1cccc(-c2cc(=O)c3c(OC)c(OC)c(OC)cc3o2)c1)Cc1ccccc1 is at least 5.
1 (yes)

Exam item: decide whether the reported pIC50 for COc1cc2oc(-c3cccc(OCCCN4CCN(C)CC4)c3)cc(=O)c2c(OC)c1OC is at least 5.
0 (no)

Exam item: decide whether the reported pIC50 for COc1ccccc1CN(C)CCCOc1cccc(-c2cc(=O)c3c(O)c(OC)c(OC)cc3o2)c1 is at least 5.
0 (no)

Exam item: decide whether the reported pIC50 for CCN(CCCOc1cccc(-c2cc(=O)c3c(OC)c(OC)c(OC)cc3o2)c1)Cc1ccccc1 is at least 5.
0 (no)

Exam item: decide whether the reported pIC50 for CCN(CCCOc1ccc(-c2cc(=O)c3c(OC)c(OC)c(OC)cc3o2)cc1)Cc1ccccc1OC is at least 5.
1 (yes)

Exam item: decide whether the reported pIC50 for COc1cc2oc(-c3cccc(OCCN4CCN(C)CC4)c3)cc(=O)c2c(OC)c1OC is at least 5.
0 (no)

Exam item: decide whether the reported pIC50 for COc1cc2oc(-c3cccc(OCCCN4CCN(Cc5ccccc5)CC4)c3)cc(=O)c2c(OC)c1OC is at least 5.
1 (yes)

Exam item: decide whether the reported pIC50 for COc1cc2oc(-c3cccc(OCCCCCCN(C)Cc4ccccc4)c3)cc(=O)c2c(OC)c1OC is at least 5.
1 (yes)

Exam item: decide whether the reported pIC50 for CCN(CCCOc1cccc(-c2cc(=O)c3c(OC)c(OC)c(OC)cc3o2)c1)Cc1ccccc1OC is at least 5.
1 (yes)

Exam item: decide whether the reported pIC50 for COc1cc2oc(-c3cccc(OCCCCN4CCN(Cc5ccccc5)CC4)c3)cc(=O)c2c(OC)c1OC is at least 5.
0 (no)

Exam item: decide whether the reported pIC50 for CCN(CCCCCCOc1cccc(-c2cc(=O)c3c(OC)c(OC)c(OC)cc3o2)c1)Cc1ccccc1OC is at least 5.
1 (yes)

Exam item: decide whether the reported pIC50 for COc1ccccc1CN(C)CCOc1cccc(-c2cc(=O)c3c(OC)c(OC)c(OC)cc3o2)c1 is at least 5.
1 (yes)

Exam item: decide whether the reported pIC50 for COc1ccccc1CN(C)CCCCOc1ccc(-c2cc(=O)c3c(OC)c(OC)c(OC)cc3o2)cc1 is at least 5.
1 (yes)

Exam item: decide whether the reported pIC50 for CCN(CCCCOc1ccc(-c2cc(=O)c3c(OC)c(OC)c(OC)cc3o2)cc1)Cc1ccccc1 is at least 5.
1 (yes)

Exam item: decide whether the reported pIC50 for COc1cc2oc(-c3ccc(OCCCCCCN4CCN(Cc5ccccc5)CC4)cc3)cc(=O)c2c(OC)c1OC is at least 5.
0 (no)

Exam item: decide whether the reported pIC50 for COc1cc2oc(-c3ccc(OCCCN4CCN(C)CC4)cc3)cc(=O)c2c(OC)c1OC is at least 5.
0 (no)

Exam item: decide whether the reported pIC50 for COc1ccccc1CN(C)CCCCOc1cccc(-c2cc(=O)c3c(O)c(OC)c(OC)cc3o2)c1 is at least 5.
0 (no)
